Molecular target: β'-COP R15A K17A R59A mutant (β'1-304) (Saccharomyces cerevisiae, UniProt P41811, K17A/R15A/R59A)
Assay: biochemical
No end group written: not given here.
PARAMETER MEASURED: Kd

Input: For the sequence RQEIIKTKLL [KTKLL] , give its reported Kd.
Output: < 300 µM
